Biological target: T1, recombinant human TIGIT (Sino Biological) (human, UniProt Q495A1 22-138)
T1 construct: Bought protein; NP_776160.2; also called human TIGIT antigen; hTIGIT
T1 sequence: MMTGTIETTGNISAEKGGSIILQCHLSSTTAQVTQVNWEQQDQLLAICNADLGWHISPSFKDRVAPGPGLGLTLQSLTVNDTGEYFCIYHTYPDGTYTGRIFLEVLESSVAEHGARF
Experiment: SPR (Biacore T200), single cycle kinetics, IgG from supernatant captured on anti-human chip, TIGIT as analyte, 1:1 fit;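 note: measured at 25 °C in HBS-P+ with 1% BSA, four ascending TIGIT concentrations, 210 s association per step, one final 900 s dissociation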
Criterion: Kd strictly under 0.9 nM. Met: criterion met. Not met: criterion not met.

Dear colleague, could you confirm whether Kd of 7A6 VH2/Vκ1 humanized antibody (human IgG1, kappa) (antibody, V domains shown, Tested as IgG in supernatant of transiently transfected HEK293 EBNA cells) VH: DVQLQESGPGLVKPSQTLSLTCTVTGYSITSDYAWNWIRQPPGKGLEWMGYISYSGSARYNPSLKSRITISRDTSKNQFSLKLSSVTAEDTATYYCARKGYPAYFAYWGQGTLVTVSS VL: DIVMTQSHSFLSASVGDRVSITCKASQDVSTAVAWYQQKPGQAPELLIYSASYRYTGVPDRFTGSGSGTDFTLTISSLQAEDVAVYYCQHHYSTPYTFGQGTKLEMKR falls below 0.9 nM? Thanks. criterion met

Another binder to check: anti-TIGIT 7A6 VH3/Vk5 humanized antibody (human IgG1, kappa) (antibody, V domains shown, also called VH3Vκ5; 7A6 VH3/Vk5-IgG1) VH: QVQLQESGPGLVKPSQTLSLTCTVTGYSITSDYAWNWIRQPPGKGLEWMGYISYSGSARYNPSLKSRVTISRDTSKNQFSLKLSSVTAEDTATYYCARKGYPAYFAYWGQGTLVTVSS VL: DIQMTQSPSSLSASVGDRVSITCKASQDVSTAVAWYQQKPGQAPRLLIYSASYRYTGVPDRFSGSGSGTDFTLTISSLQPEDFATYYCQHHYSTPYTFGQGTKLEIKR criterion met

Now consider 7A6 VH3/Vκ2 humanized antibody (human IgG1, kappa) (antibody, V domains shown, Tested as IgG in supernatant of transiently transfected HEK293 EBNA cells) VH: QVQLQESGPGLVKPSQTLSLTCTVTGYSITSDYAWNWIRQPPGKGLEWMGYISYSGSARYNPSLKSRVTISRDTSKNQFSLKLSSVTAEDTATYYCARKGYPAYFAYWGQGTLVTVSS VL: DIVMTQSPSSLSASVGDRVSITCKASQDVSTAVAWYQQKPGQAPRLLIYSASYRYTGVPDRFTGSGSGTDFTLTISSLQAEDVAVYYCQHHYSTPYTFGQGTKLEIKR and answer again. criterion not met

Field entry: 7A6 VH4/Vκ3 humanized antibody (human IgG1, kappa) (antibody, V domains shown, Tested as IgG in supernatant of transiently transfected HEK293 EBNA cells) VH: QVQLQESGPGLVKPSQTLSLTCTVTGYSITSDYAWNWIRQPPGKGLEWMGYISYSGSARYNPSLKSRVTISRDTSKNQFSLKLSSVTAADTAVYYCARKGYPAYFAYWGQGTLVTVSS VL: DIQMTQSPSSLSASVGDRVSITCKASQDVSTAVAWYQQKPGQAPRLLIYSASYRYTGVPDRFSGSGSGTDFTLTISSLQAEDVAVYYCQHHYSTPYTFGQGTKLEIKR criterion not met

// same read-out, input: 7A6 VH2/Vκ5 humanized antibody (human IgG1, kappa) (antibody, V domains shown, Tested as IgG in supernatant of transiently transfected HEK293 EBNA cells) VH: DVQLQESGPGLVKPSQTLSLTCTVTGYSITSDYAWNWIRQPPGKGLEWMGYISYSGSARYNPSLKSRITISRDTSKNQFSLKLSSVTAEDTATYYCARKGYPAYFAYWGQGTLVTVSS VL: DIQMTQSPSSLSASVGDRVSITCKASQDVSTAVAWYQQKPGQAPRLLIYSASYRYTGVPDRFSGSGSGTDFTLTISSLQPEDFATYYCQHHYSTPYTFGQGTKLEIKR criterion met
